Test: Metabolic stability in rat liver microsome after 30 mins
Type: ADME
Conditions: liver microsomes, read-out: Stability
MEASURED_METRIC: remaining at 0.5 h

1) CC(=O)Nc1cccc(-c2ccc(Cc3ocnc3C(=O)NCc3ccccc3)cc2)c1: 33%
2) CC(=O)Nc1cccc(-c2ccc(Cc3ocnc3C(=O)NC[C@H](C)c3ccccc3)cc2)c1: 11%
3) CC(=O)Nc1cccc(-c2ccc(Cc3ocnc3C(=O)N[C@@H](Cc3ccccc3)C(=O)O)cc2)c1: 91%

* * *

# Lookup of reported log10 IC50 keyed by entry
Target: Prostacyclin receptor (Homo sapiens, UniProt P43119)
Sequence (P43119 whole entry): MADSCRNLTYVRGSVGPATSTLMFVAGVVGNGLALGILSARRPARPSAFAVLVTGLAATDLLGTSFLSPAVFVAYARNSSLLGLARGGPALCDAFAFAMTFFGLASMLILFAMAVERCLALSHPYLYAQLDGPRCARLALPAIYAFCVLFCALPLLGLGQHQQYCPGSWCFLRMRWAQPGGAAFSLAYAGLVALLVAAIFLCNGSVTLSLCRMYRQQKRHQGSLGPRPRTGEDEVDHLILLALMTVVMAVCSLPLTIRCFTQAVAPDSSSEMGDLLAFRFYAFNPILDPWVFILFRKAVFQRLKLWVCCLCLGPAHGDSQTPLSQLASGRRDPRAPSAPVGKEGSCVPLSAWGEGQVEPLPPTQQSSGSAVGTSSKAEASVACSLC
Assay: Antagonist activity at human IP receptor in HEL 92.1.7 cells assessed as inhibition of iloprost-induced cAMP production
Format: functional, cell-based
MEASURED_METRIC: log10 IC50 (log10 of the value in nM)

1) CC(=O)Nc1cccc(-c2ccc(Cc3ocnc3C(=O)NC(C)c3ccccc3)cc2)c1 (racemic): 2.44
2) CC(=O)Nc1cccc(-c2ccc(Cc3ocnc3C(=O)NCCN(C)C)cc2)c1: 3.52
3) CC(=O)Nc1cccc(-c2ccc(Cc3ocnc3C(=O)N[C@H](Cc3ccccc3)C(=O)O)cc2)c1: 2.92
4) CC(=O)Nc1cccc(-c2ccc(Cc3ocnc3C(=O)N[C@@H](Cc3ccccc3)C(=O)O)cc2)c1: 1.20
5) CC(=O)Nc1cccc(-c2ccc(Cc3ocnc3C(=O)NCCc3cccnc3)cc2)c1: 2.87
